Tested on: PC-3 prostate
Test: NCI-60 one-dose screen, 48 h
Conditions: 10 µM unless noted
This is part of a sample that, as a whole, favours compounds with a hit. Of some 83,000 tested, about 20% had one in any assay. Active and inactive are the calls of the source. The calls were made as follows: active = growth percent below 10; inactive = the rest.
Your response should consist of one outcome taken from active, inactive

{"compound": "FC(F)(F)c1cccc([Si](F)(c2cccc(C(F)(F)F)c2)c2cccc(C(F)(F)F)c2)c1", "classAssignment": "inactive"}
{"compound": "CO[C@H]1/C=C/C=C/C=C/C[C@H](OC(=O)[C@@H](C)NC(=O)C2CCCCC2)[C@H](C)[C@@H](O)/C(C)=C\\CCC2=CC(=O)C=C(NC(=O)C1)C2=O", "classAssignment": "active"}
{"compound": "O=C1OC(=O)C2C3CC(c4ccccc43)C12 (stereo not given)", "classAssignment": "inactive"}
{"compound": "COc1ccc2c(c1)nnc1c3cccnc3[nH]c21", "classAssignment": "inactive"}
{"compound": "O=C(Nc1ccc(-n2cc(-c3ccncc3)c(-c3ccc(O)c(Cl)c3)n2)cc1)c1ccc(Cl)c(C(F)(F)F)c1", "classAssignment": "inactive"}
{"compound": "COc1cc(-c2nc3ccccc3s2)ccc1OCc1nc2n(n1)S(=O)(=O)c1ccccc1N2c1ccccc1", "classAssignment": "inactive"}
{"compound": "Cc1cc(Nc2ccc(Cl)c(Cl)c2)nc(N)n1", "classAssignment": "inactive"}
{"compound": "COc1ccccc1S(=O)(=O)Nc1ccc2c3c(cc(-c4ccoc4)nc13)C(=O)N2C", "classAssignment": "inactive"}

Exercise: Please indicate how the test categorized Nc1ncnc2c1ncn2C1OC(COC(c2ccccc2)(c2ccccc2)c2ccccc2)C(O)C1O (stereo not given) .
Key: inactive

Exercise: Please indicate how the test categorized CCC1S/C(=N\N=C(/C)c2cc3ccccc3o2)N(c2ccccc2)C1=O (stereo not given) .
Key: inactive

Exercise: Please indicate how the test categorized "Cn1c(I)c(C#C[Si](C)(C)C)c(=O)[nH]c1=O" .
Key: active

Exercise: Please indicate how the test categorized Cc1cn(C2CC(N=[N+]=[N-])C(COP(=O)(O)OP(=O)(O)OP(=O)(O)O)O2)c(=O)[nH]c1=O (stereo not given) .
Key: inactive

---

Test system: SNB-75 CNS
Assay: NCI-60 one-dose screen, 48 h
Conditions: 10 µM unless noted
The panel holds about 83,000 compounds, 20% with a hit somewhere; the sample as a whole holds those more often. The source made the active and inactive calls. The calls were made as follows: active = growth percent below 10; inactive = the rest.
Your response should consist of one outcome taken from y = active, n = inactive

The examples below pair each entry with its known result.
{"itemSmiles": "Cc1nc(N)nc(SCc2ccccc2)c1Br", "testedOn": "SNB-75 CNS", "classAssignment": "n"}
{"itemSmiles": "COc1cccc(-c2nc3sccn3c2-c2ccnc(NCCNC(=O)Nc3cccc(C(F)(F)F)c3)n2)c1", "testedOn": "SNB-75 CNS", "classAssignment": "n"}

Exercise: Please indicate how the test categorized "C=C1C(=O)O[C@H]2[C@H]1CC/C(COC(=O)c1cccc3ccccc13)=C\CC[C@@]1(C)O[C@@H]21" .
Key: n

Exercise: Please indicate how the test categorized "CCn1cc(/C=C2\Oc3cc(OCC#N)ccc3C2=O)c2cc(OC)ccc21" .
Key: n

Exercise: Please indicate how the test categorized "Cc1ccc(N(CC2=NCCN2)c2cccc(O)c2)cc1" .
Key: n

Exercise: Please indicate how the test categorized "S=c1ssnc1-c1ccccn1" .
Key: n

Exercise: Please indicate how the test categorized "Nc1ncnc2c1c(C(F)(F)F)cn2[C@@H]1O[C@H](CO)[C@@H](O)[C@H]1O" .
Key: y

Exercise: Please indicate how the test categorized "O=C(Nc1cccc(-n2ccc3c(NC(=O)c4ccccc4)nccc32)c1)c1cc(N2CCOCC2)cc(C(F)(F)F)c1" .
Key: n

Exercise: Please indicate how the test categorized "c1ccc2nc(Cn3cc[n+](Cc4ccc5ccccc5n4)c3)ccc2c1" .
Key: n

Exercise: Please indicate how the test categorized "O=C(Nc1cccc(-n2ccc3c(NC(=O)c4ccccc4)nccc32)c1)Nc1cc(C(F)(F)F)cc(C(F)(F)F)c1" .
Key: n

---

Test system: EKVX NSCLC
Test: NCI-60 one-dose screen, 48 h (100 = growth as untreated, 0 = no growth, -100 = all killed)
Details: 10 µM unless noted
About 83,000 compounds went through this panel and 20% of them were active in at least one assay; those are over-represented in the sample as a whole. Activity calls are given as the source filed them. Rule for the calls: active = growth percent below 10; inactive = the rest.
Item-by-item account of growth

The cases that follow already have their growth on record.
{"itemSmiles": "CN(C)c1ccc2cc(-c3nc4ccccc4s3)c(N)nc2c1", "growth": "67.7% (inactive)"}
{"itemSmiles": "O=C1C(Cl)=C(Nc2ccccc2)C(=O)C(Cl)=C1Nc1ccccc1", "growth": "114% (inactive)"}
{"itemSmiles": "COc1cccc(-c2nc3sccn3c2-c2ccnc(NCCNC(=O)Nc3cccc(C(F)(F)F)c3)n2)c1", "growth": "61.5% (inactive)"}

Exercise: What measured growth goes with "Cc1ccc2nc(-c3ccc(-n4on4-c4ccc(/C=C/c5ccc(-n6on6-c6ccc(-c7nc8ccc(C)cc8s7)cc6)cc5S(=O)(=O)O)c(S(=O)(=O)O)c4)cc3)sc2c1" ?
Key: 112% (inactive)

---

Item-by-item account of growth
Tested on: U251 CNS
Test: NCI-60 one-dose screen, 48 h (100 = growth as untreated, 0 = no growth, -100 = all killed)
Conditions: 10 µM unless noted
About 83,000 compounds went through this panel and 20% of them were active in at least one assay; those are over-represented in the sample as a whole.
Numeric answer only, unit % assumed.

The cases that follow already have their growth on record.
{"compound": "Nc1ncc(-c2ccc3ncnc(Nc4ccc(F)c(Cl)c4)c3c2)cn1", "testedOn": "U251 CNS", "quantitativeReadout": -14.8}
{"compound": "CC(C)[C@@H]1NC(=O)[C@]2(C)CSC(=N2)c2ccnc(c2)CNC(=O)C[C@@H](/C=C/CCS)OC1=O", "testedOn": "U251 CNS", "quantitativeReadout": -66.6}
{"compound": "O=C(Nc1ccc(-n2cc(-c3ccncc3)c(-c3ccc(O)c(Cl)c3)n2)cc1)Nc1ccc(Cl)c(C(F)(F)F)c1", "testedOn": "U251 CNS", "quantitativeReadout": 5.79}

Exercise: What measured growth goes with "O=C(Nc1ccc(-n2cc(-c3ccncc3)c(-c3ccc(O)c(Cl)c3)n2)cc1)Nc1cc(C(F)(F)F)cc(C(F)(F)F)c1" ?
Key: 37.7

Exercise: What measured growth goes with "COc1ccc(-n2c(-c3ccc(NC(=O)CCCl)cc3)nnc2-c2cc(OC)c(OC)c(OC)c2)cc1" ?
Key: 34.4

---

System: MDA-MB-231 breast
Test: NCI-60 one-dose screen, 48 h (100 = growth as untreated, 0 = no growth, -100 = all killed)
Details: 10 µM unless noted
About 83,000 compounds went through this panel and 20% of them were active in at least one assay; those are over-represented in the sample as a whole.
Each entry belongs to exactly one class, chosen by where its growth falls: label 0: < 50%; label 1: ≥ 50% and < 80%; label 2: ≥ 80%

The examples below pair each entry with its known result.
{"compound": "COc1cc(NC(=O)c2cc(OC)c3ccn(C)c3c2)cc2c1C[C@]1(C)CC[C@@H](O)C(C)(C)[C@H]1O2", "classAssignment": "label 1"}
{"compound": "C=CCOc1ccc(/C(Cl)=N/N=C(\\Cl)c2cc(OC)c(OC)c(OC)c2)cc1", "classAssignment": "label 2"}
{"compound": "O=C1C(Cl)=C(Nc2cccc3cc4ccccc4nc23)C(=O)c2ccccc21", "classAssignment": "label 0"}
{"compound": "CCCC(C)(C)COC(=O)c1cccc(N)c1", "classAssignment": "label 2"}
{"compound": "COc1cccc(-c2nc3sccn3c2-c2ccnc(NCCNC(=O)c3ccccc3)n2)c1", "classAssignment": "label 2"}
{"compound": "O=C(O)c1cccc2oc(-c3ccccc3O)nc12", "classAssignment": "label 1"}
{"compound": "O=c1c(-c2ccc3c(c2)OCO3)coc2c(CO)c(O)ccc12", "classAssignment": "label 0"}
{"compound": "O=C(COc1ccc(Cl)cc1)N1CCN(Cc2ccc3c(c2)OCO3)CC1", "classAssignment": "label 2"}
{"compound": "C=C1C(=O)O[C@H]2[C@H]1CC/C(C(=O)Nc1ccc(OC)c(C(N)=O)c1O)=C\\CC[C@@]1(C)O[C@@H]21", "classAssignment": "label 1"}
{"compound": "c1ccc(CNCCN(CCNCc2ccccn2)Cc2ccc3ccccc3c2)nc1", "classAssignment": "label 0"}

Exercise: Assign a category based on measured growth for CCN(CC)c1ccc(C2CC(c3cc(OC)c(OC)c(OC)c3)=NN2)cc1 (stereo unspecified) and give only the class name.
Key: label 0

Exercise: Assign a category based on measured growth for "CCOC(=O)c1[nH]c(-c2ccc(Cl)cc2)cc1-c1cccnc1" and give only the class name.
Key: label 0

Exercise: Assign a category based on measured growth for "CC(C)CNCC(=O)Nc1ccc(Cc2ccc(NC(=O)CNCC(C)C)cc2)cc1" and give only the class name.
Key: label 0

Exercise: Assign a category based on measured growth for "Cc1ccccc1C[P+](c1ccccc1)(c1ccccc1)c1ccccc1" and give only the class name.
Key: label 0
